- Tested on: MM1.S
- PROTOCOL TEXT: Induction of cell cycle arrest in human MM1.S cells assessed as reduction in cells at […] phase at 10 uM measured after 48 hrs by propidium iodide based flow cytometry
- Format: functional
Calls of active or inactive are those of the source. The calls are words filed in the database; no cut-off is given here.
Pick one: true (1) = active, false (0) = inactive

These solved cases illustrate the format of a correct answer.
O=C(CCCCCCNC(=O)c1ccc(NC(=O)CCCCCCCNC(=O)COc2cccc3c2C(=O)N(C2CCC(=O)NC2=O)C3=O)cc1)NO (stereo not given); false (0)
N#CCCN(C(=O)CCl)c1ccc2c(c1)OCCN2CC(=O)N1CCC(C(=O)Nc2ccc(C(=O)NCCCCCCC(=O)NO)cc2)CC1; true (1)
N#CCCN(C(=O)CCl)c1ccc2c(c1)OCCN2CC(=O)NCCCCCCCC(=O)Nc1ccc(C(=O)NCCCCCCC(=O)NO)cc1; true (1)
CCC(=O)N(CCC#N)c1ccc2c(c1)OCCN2CC(=O)NCC(=O)Nc1ccc(C(=O)NCCCCCCC(=O)NO)cc1.O=C(O)C(F)(F)F; false (0)

Next up:
Recorded call for N#CCCN(C(=O)CCl)c1ccc2c(c1)OCCN2CC(=O)NCC(=O)Nc1ccc(C(=O)NCCCCCCC(=O)NO)cc1 ?
true (1)
